Tested on: Puccinia triticina
Test: Wheat brown rust (PUCCRT) disease control on wheat seedlings
Type: in vivo
Conditions: 72 h, High volume application, 100 ppm, 3 Day Curative, read-out: PUCCRT disease control rating, 3DC
Protocol: Technical grades of materials were dissolved in acetone, which were then mixed with nine volumes of water containing 110 ppm Triton X-100. The fungicide solutions were applied onto wheat seedlings using an automated booth sprayer to run-off. All sprayed plants were allowed to air dry prior to further handling. All fungicides were evaluated using the aforementioned method for their activity vs. all target diseases, unless stated otherwise. […]
outcomeMeasure: pest or weed control at 100 ppm

>>> value("COc1ccnc(C(=O)N[C@@H](C)C(=O)O[C@@H](C)[C@@H](C)c2ccccc2C(F)(F)F)c1O")
"> 80%"
>>> value("COc1ccnc(C(=O)N[C@@H](C)C(=O)O[C@@H](C)[C@@H](C)c2ccc(C)s2)c1O")
"> 80%"
>>> value("COc1ccnc(C(=O)N[C@@H](C)C(=O)O[C@H](C)[C@H](C)c2ccc(C)cc2C)c1O")
"< 80%"
>>> value("COc1cc[n+]([O-])c(C(=O)N[C@@H](C)C(=O)O[C@@H](C)[C@@H](C)c2ccccc2)c1O")
"< 80%"
>>> value("COc1ccnc(C(=O)N[C@@H](C)C(=O)OC(C)C(C)c2c(C)cc(F)cc2C)c1O (stereo partly shown)")
"> 80%"
>>> value("COc1ccnc(C(=S)N[C@@H](C)C(=O)O[C@@H](C)[C@@H](C)C2CCCC2)c1O")
"> 80%"
>>> value("COc1cc(F)ccc1[C@@H](C)[C@@H](C)OC(=O)[C@H](C)NC(=O)c1nccc(OC)c1OC(C)=O")
"< 80%"

----------
Tested on: Phakopsora pachyrhizi
Test: Asian soybean rust (PHAKPA) disease control on soybean seedlings
Assay type: in vivo
Details: Phakopsora pachyrhizi, 72 h, High volume application at 25 ppm, 3 day curative, read-out: PHAKPA 3DC (3 Day Curative) disease control
The entries below are paired with their reported pest or weed control at 25 ppm.
outcomeMeasure: pest or weed control at 25 ppm

>>> value("COc1ccccc1[C@H](C)[C@H](C)OC(=O)[C@H](C)NC(=O)c1nccc(OC)c1OC(C)=O")
"< 0%"
>>> value("COc1ccnc(C(=O)N[C@@H](C)C(=O)O[C@@H](C)[C@@H](C)c2c(C)cccc2C)c1OC(=O)C(C)C")
"> 80%"
>>> value("COc1ccnc(C(=O)NCC(=O)O[C@@H](C)[C@@H](C)c2ccc(F)cc2)c1OC(=O)C(C)C")
"< 0%"
>>> value("COc1ccnc(C(=O)N[C@H](C(=O)O[C@H](C)[C@@H](C)c2ccccc2C)C(C)C)c1OC(C)=O")
"< 80%"
>>> value("COc1ccnc(C(=O)N[C@@H](C)C(=O)O[C@@H](C)[C@@H](C)c2ccccc2C(F)(F)F)c1O")
"< 80%"
>>> value("COc1cc[n+]([O-])c(C(=O)N[C@@H](C)C(=O)O[C@@H](C)[C@@H](C)C2CCCC2)c1O")
"< 80%"
>>> value("COc1ccc([C@@H](C)[C@@H](C)OC(=O)[C@H](C)NC(=O)c2nccc(OC)c2OC(C)=O)c(C)c1")
"< 80%"

----------
System: Zymoseptoria tritici
Assay: Leaf blotch of wheat (SEPTTR) disease control on wheat seedlings
Assay type: in vivo
Conditions: 24 h, High volume application, 100 ppm, 1 Day Protectant, read-out: SEPTTR disease control rating, 1DP
The entries below are paired with their reported pest or weed control at 100 ppm.
outcomeMeasure: pest or weed control at 100 ppm

>>> value("COc1ccnc(C(=O)N[C@@H](C)C(=O)O[C@@H](C)[C@@H](C)c2ccc(C)cc2C)c1O")
"< 80%"
>>> value("COc1ccnc(C(=O)NCC(=O)O[C@@H](C)[C@H](C)c2ccccc2C)c1O")
"< 0%"
>>> value("COc1cc(F)ccc1[C@@H](C)[C@@H](C)OC(=O)[C@H](C)NC(=O)c1nccc(OC)c1OC(C)=O")
"< 80%"
>>> value("COc1ccnc(C(=O)N[C@@H](C)C(=O)O[C@H](C)[C@H](C)c2ccccc2C(F)(F)F)c1O")
"< 80%"
>>> value("COc1ccnc(C(=O)N[C@@H](C)C(=O)O[C@@H](C)[C@@H](C)c2ccc(F)cc2C)c1O")
"> 80%"
>>> value("COc1ccnc(C(=O)N[C@@H](C)C(=O)O[C@@H](C)[C@@H](C)c2ccc(C)s2)c1OC(C)=O")
"< 80%"
>>> value("COc1ccnc(C(=O)N[C@H](C(=O)O[C@H](C)[C@H](C)c2ccc(F)cc2C)C(C)C)c1O")
"< 80%"

----------
Tested on: Phakopsora pachyrhizi
Experiment: Asian soybean rust (PHAKPA) disease control on soybean seedlings
Type: in vivo
Conditions: Phakopsora pachyrhizi, 72 h, High volume application at 25 ppm, 3 day curative, read-out: PHAKPA 3DC (3 Day Curative) disease control
The entries below are paired with their reported pest or weed control at 25 ppm.
outcomeMeasure: pest or weed control at 25 ppm

>>> value("COc1ccc([C@@H](C)[C@@H](C)OC(=O)[C@H](C)NC(=O)c2nccc(OC)c2OCOC(C)=O)c(C)c1 [Example 233]")
"< 80%"
>>> value("COc1ccnc(C(=S)N[C@@H](C)C(=O)O[C@@H](C)[C@@H](C)C2CCCC2)c1OC(C)=O [Example 272]")
"< 80%"
>>> value("COc1ccnc(C(=O)N[C@@H](C)C(=O)O[C@@H](C)[C@@H](C)c2ccccc2C(F)(F)F)c1OC(=O)C(C)C [Example 234]")
"> 80%"
>>> value("COc1cc(F)ccc1[C@@H](C)[C@@H](C)OC(=O)[C@H](C)n1c(=O)oc2c(OC)ccnc2c1=O [Example 262]")
"< 80%"
>>> value("COc1cc[n+]([O-])c(C(=O)N[C@@H](C)C(=O)O[C@@H](C)[C@@H](C)c2ccc(F)cc2C(F)(F)F)c1O [Example 274]")
"< 80%"
>>> value("COc1ccnc(C(=O)N[C@H](C(=O)O[C@@H](C)[C@H](C)c2ccccc2C)C(C)C)c1OC(C)=O [Example 186]")
"< 80%"
>>> value("COc1ccnc(C(=O)N[C@@H](C)C(=O)OC(C)C(C)c2c(C)cc(F)cc2C)c1OC(=O)C(C)C (some centres unmarked) [Example 244]")
"> 80%"
>>> value("COc1ccnc(C(=O)N[C@H](C(=O)O[C@H](C)[C@H](C)c2ccc(F)cc2C)C(C)C)c1OC(=O)C(C)C [Example 214]")
"< 80%"

----------
System: Phakopsora pachyrhizi
Assay: Asian soybean rust (PHAKPA) disease control on soybean seedlings
Format: in vivo
Details: Phakopsora pachyrhizi, 72 h, High volume application at 25 ppm, 3 day curative, read-out: PHAKPA 3DC (3 Day Curative) disease control
The entries below are paired with their reported pest or weed control at 25 ppm.
outcomeMeasure: pest or weed control at 25 ppm

>>> value("COc1ccnc(C(=O)N[C@@H](C)C(=O)O[C@@H](C)[C@@H](C)c2ccccc2C)c1OC(=O)C1CC1")
"> 80%"
>>> value("CCC(=O)Oc1c(OC)ccnc1C(=O)N[C@@H](C)C(=O)O[C@@H](C)[C@@H](C)c1ccccc1C")
"> 80%"
>>> value("COc1ccnc(C(=O)N[C@H](C(=O)O[C@@H](C)[C@H](C)c2ccc(F)cc2C)C(C)C)c1OC(C)=O")
"< 0%"
>>> value("COc1ccnc(C(=O)N[C@@H](C)C(=O)O[C@@H](C)[C@@H](C)c2ccc(F)cc2C(F)(F)F)c1OC(=O)C(C)C")
"> 80%"
>>> value("COc1ccnc(C(=O)N[C@@H](C)C(=O)O[C@H](C)[C@H](C)c2ccc(F)cc2C(F)(F)F)c1OC(C)=O")
"< 80%"
>>> value("COc1ccnc(C(=O)NCC(=O)O[C@@H](C)[C@H](C)c2ccccc2C)c1OC(=O)C(C)C")
"< 0%"
>>> value("COc1ccnc2c(=O)n([C@@H](C)C(=O)O[C@@H](C)[C@@H](C)c3ccccc3C)c(=O)oc12")
"> 80%"
>>> value("COc1ccnc(C(=O)N[C@@H](C)C(=O)O[C@H](C)[C@H](C)c2ccc(C)cc2C)c1OC(C)=O")
"< 80%"
>>> value("COc1ccnc(C(=O)N[C@@H](C)C(=O)O[C@@H](C)[C@@H](C)c2ccc(F)cc2C)c1O")
"> 80%"
>>> value("COc1ccnc(C(=O)N[C@@H](C)C(=O)O[C@@H](C)[C@@H](C)c2ccc(C)cc2C)c1OC(C)=O")
"> 80%"
>>> value("COc1ccnc(C(=O)N[C@@H](C)C(=O)O[C@@H](C)[C@H](C)c2ccccc2C)c1OCOC(C)=O")
"< 0%"
>>> value("COc1ccnc(C(=O)N[C@@H](C)C(=O)O[C@@H](C)[C@@H](C)C2CCCC2)c1OC(C)=O")
"< 80%"
>>> value("COc1ccnc(C(=O)N[C@H](C(=O)O[C@@H](C)[C@H](C)c2ccc(F)cc2C)C(C)C)c1OC(=O)C(C)C")
"< 0%"
>>> value("COc1ccnc(C(=O)N[C@@H](C)C(=O)O[C@@H](C)[C@@H](C)c2ccc(F)cc2C(F)(F)F)c1O")
"> 80%"
